Where do these numbers come from? They come from PubChem BioAssay (NCI).

# Tested on: TK-10 renal
# procedure-text: NCI tumour cell line growth inhibition, 48 h
I'd appreciate it if you could supply TGI values for the items below.

Q) Param item = COc1ccc(/C(CC2OC(=O)c3ccccc32)=N\NC(=O)C[N+](C)(C)C)cc1 (configuration not stated) ; retrieve measured TGI.
A) 87.8 µM

Q) Param item = OCC1OC(n2cnc3c(Cl)nc(Cl)cc32)C(O)C1O (configuration not stated) ; retrieve measured TGI.
A) > 100 µM

Q) Param item = COC(=O)/C=C(/OC)[C@H](C)[C@H](/C=C/c1csc(-c2csc(C(C)C)n2)n1)OC ; retrieve measured TGI.
A) > 100 µM

Q) Param item = Cn1/c(=N\N=C(\CNCCO)[C@@H](O)[C@@H]2OC(c3ccccc3)OC[C@H]2O)sc2ccccc21 (some centres not stated) ; retrieve measured TGI.
A) 36.3 µM

Q) Param item = N#CCC(=O)N/N=C(\C(=O)Nc1ccc(Cl)c(Cl)c1)C1CN(c2ccccc2)N=C1N (configuration not stated) ; retrieve measured TGI.
A) > 100 µM

Q) Param item = c1ccc2c(c1)[nH]c1c2nc2ncccn21 ; retrieve measured TGI.
A) > 100 µM

Q) Param item = C=C(C)[C@@H]1CC[C@]2(CO)CC[C@]3(C)[C@H](CC[C@@H]4[C@@]5(C)CCC(NCCc6ccc(O)cc6)C(C)(C)[C@@H]5CC[C@]43C)[C@@H]12 (some centres not stated) ; retrieve measured TGI.
A) 3.13 µM

Q) Param item = Cc1nn(-c2nc3ccccc3s2)c2c1C(=O)c1ccccc1-2 ; retrieve measured TGI.
A) > 100 µM

Q) Param item = NCCN1C(=O)C2C3c4ccccc4C(c4ccccc43)C2C1=O (configuration not stated) ; retrieve measured TGI.
A) > 100 µM

Q) Param item = COc1c(C)cc2c(c1O)C1NC(C2)[C@H](O)N2C3COC(=O)[C@@]4(CS[C@@H](c5c(OC(C)=O)c(C)c6c(c53)OCO6)C12)NCCC1=C4NC2C=CC=CC12 (some centres not stated) ; retrieve measured TGI.
A) 1.31 µM

Q) Param item = CCOP(=O)(OCC)C(C(=O)OC)C(=O)C(=O)Nc1c(C)cc(Br)cc1C (configuration not stated) ; retrieve measured TGI.
A) > 100 µM

Q) Param item = O=C1c2ccccc2C(=O)N1C/C=C/CO ; retrieve measured TGI.
A) > 100 µM

Q) Param item = N#C/C(=C/Sc1ccccc1)C(=O)O ; retrieve measured TGI.
A) > 100 µM

Q) Param item = COc1cc(/C=C\c2cccnc2)cc(OC)c1OC ; retrieve measured TGI.
A) > 100 µM

Q) Param item = Cc1cc(C)nc(SCCc2cccc[n+]2C)n1 ; retrieve measured TGI.
A) > 100 µM

Q) Param item = CC(C)(C)c1ccc(/C=N/NC(=O)CSCC(=O)N/N=C/c2ccc(C(C)(C)C)cc2)cc1 ; retrieve measured TGI.
A) 16.6 µM

Q) Param item = O=C1c2ccccc2-c2c1c1c(O)cccc1n2-c1ccccc1 ; retrieve measured TGI.
A) > 100 µM
